System: T-47D breast
Experiment: NCI tumour cell line growth inhibition, 48 h
Here, each record is paired with measured TGI data.
Test Readout: TGI

[
  {
    "Compound": "COC(=O)[C@@H]1C=C[C@H](OC2OC(COC(C)=O)C(OC(C)=O)C(OC(C)=O)C2OC(C)=O)n2c(=O)n(-c3ccccc3)c(=O)n21 (stereo not given in full)",
    "Obs Value": "8.75 µM"
  },
  {
    "Compound": "Cc1ccc(C2=C(c3ccc(C)cc3)C3(c4ccc(C)cc4)C4C(=O)OC(=O)C4C2(c2ccc(C)cc2)S3=O)cc1 (stereo not given)",
    "Obs Value": "> 100 µM"
  },
  {
    "Compound": "CC(C)C(O)(C(C)C)C(C)C",
    "Obs Value": "> 100 µM"
  },
  {
    "Compound": "Nc1n[nH]c2cccc(C#Cc3cccc(NC(=O)c4cccc(C(F)(F)F)c4)c3)c12",
    "Obs Value": "8.1 µM"
  },
  {
    "Compound": "COc1ccc2c(c1)NC1=C(C(=O)OC1)C2c1cc(OC)c(OC)c(OC)c1 (stereo not given)",
    "Obs Value": "> 100 µM"
  },
  {
    "Compound": "Cc1cn(-c2cc(NC(=O)c3cccc(C#Cc4cccc5[nH]nc(N)c45)c3)cc(C(F)(F)F)c2)cn1",
    "Obs Value": "18.5 µM"
  },
  {
    "Compound": "Cc1ccc(-n2[nH]nc(C(N)=O)c2=O)cc1",
    "Obs Value": "> 100 µM"
  },
  {
    "Compound": "O=c1[nH]c2ccccc2cc1-c1nc2ccc(Cl)cc2[nH]1",
    "Obs Value": "> 100 µM"
  },
  {
    "Compound": "N#Cc1ccc(-c2nc3c(N)ncnc3o2)cc1",
    "Obs Value": "> 100 µM"
  },
  {
    "Compound": "O=C1NC(=S)S/C1=C/c1ccc2c(c1)OCO2",
    "Obs Value": "> 100 µM"
  }
]

----------
Test system: XF 498 CNS
Test: NCI tumour cell line growth inhibition, 48 h

[
  {
    "Compound": "CN(C)CCC(=O)N1C/C(=C\\c2ccc(Cl)c(Cl)c2)C(=O)/C(=C/c2ccc(Cl)c(Cl)c2)C1",
    "TGI": "2.32 µM"
  },
  {
    "Compound": "Cc1ccc(S(=O)(=O)OC2CC=CC2)cc1",
    "TGI": "> 100 µM"
  },
  {
    "Compound": "Nc1ncnc2c1ncn2C1C=C(CO)C(O)C1O (stereo not drawn)",
    "TGI": "> 100 µM"
  },
  {
    "Compound": "CN(C)CCNC(=O)c1cccc2c(=O)c3ccccc3oc12",
    "TGI": "> 93.9 µM"
  },
  {
    "Compound": "CCC[CH2][Sn]([CH2]CCC)([O]C(=O)CN)[O]C(=O)CN",
    "TGI": "48 µM"
  },
  {
    "Compound": "O=C(O)CCC1CCc2cccc(O)c2C1=O (stereo not drawn)",
    "TGI": "> 100 µM"
  },
  {
    "Compound": "COc1ccc([C@@]2(O)c3c(ccc(O)c3OC)[C@H]2OC)c(OC)c1",
    "TGI": "> 100 µM"
  },
  {
    "Compound": "CC(=O)C1C(c2ccccc2)C2(C)OC(=O)C(C#N)C12C (stereo not drawn)",
    "TGI": "> 100 µM"
  }
]
